tested-target: human orexin type 2 receptor (hOX2R) (Homo sapiens)
method-description: cell-based
pEC50: −log10 of the molar value.
Catalogue of pEC50 values

# annotated cases, reported pEC50 shown
smiles-representation	pEC50
C[C@](O)(C(=O)N1CC2(CC2)[C@H](NS(=O)(=O)CF)[C@@H]1Cc1cccc(-c2cccc(F)c2)c1F)C(F)F	9.00 to 10.20
CO[C@H](C)C(=O)N1CC2(CC2)[C@H](NS(=O)(=O)C(F)F)[C@@H]1Cc1cccc(-c2cc(F)cc(F)c2)c1F	8.00 to 9.00

Consider the additional compound presented here.
Let me know recorded pEC50 for `CC(C)(F)CNC(=O)N1CC2(CC2)[C@H](NS(=O)(=O)CF)[C@@H]1Cc1cccc(-c2cccc(F)c2)c1F` , thanks.
8.00 to 9.00

---

tested-target: human orexin type 2 receptor (hOX2R) (Homo sapiens);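 note: agonist activity in CHO cells stably expressing hOX2R, intracellular Ca2+ via Calcium 5 dye fluorescence area over 2 min, buffer-only as 0% and 10 nM orexin A as 100%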
Sequence (O43614 1-444): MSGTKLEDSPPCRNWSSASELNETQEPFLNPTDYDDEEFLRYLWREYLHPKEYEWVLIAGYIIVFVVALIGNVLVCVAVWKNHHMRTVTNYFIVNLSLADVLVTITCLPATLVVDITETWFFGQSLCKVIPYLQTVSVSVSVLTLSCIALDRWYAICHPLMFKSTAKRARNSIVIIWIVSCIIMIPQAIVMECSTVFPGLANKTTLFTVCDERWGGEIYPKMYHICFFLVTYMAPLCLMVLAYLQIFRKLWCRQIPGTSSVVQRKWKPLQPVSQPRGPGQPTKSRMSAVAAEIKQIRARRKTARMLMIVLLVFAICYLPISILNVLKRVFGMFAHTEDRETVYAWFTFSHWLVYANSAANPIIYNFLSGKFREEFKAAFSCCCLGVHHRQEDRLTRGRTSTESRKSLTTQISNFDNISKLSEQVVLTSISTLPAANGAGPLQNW
method-description: cell-based
pEC50: −log10 of the molar value.
quantity: pEC50

# annotated cases, reported pEC50 shown
smiles-representation	pEC50
C[C@@H](NC(=O)N1CC2(CC2)[C@H](NS(=O)(=O)CF)[C@@H]1Cc1cccc(-c2cc(F)cc(F)c2)c1F)C(F)F	8.00 to 9.00
C[C@@](O)(CF)C(=O)N1CC2(CC2)[C@H](NS(=O)(=O)CF)[C@@H]1Cc1cc(F)cc(-c2ccccc2)c1F	9.00 to 10.20
N#CC1(C(=O)N2CC3(CC3)[C@H](NS(=O)(=O)CF)[C@@H]2Cc2cccc(-c3ccccc3)c2F)CC1	9.00 to 10.20
CO[C@@H](C)C(=O)N1CC2(CC2)[C@H](NS(=O)(=O)CF)[C@@H]1Cc1cccc(-c2cc(F)cc(F)c2)c1F	9.00 to 10.20
CC(C)(F)CNC(=O)N1CC2(CC2)[C@H](NS(=O)(=O)C(F)F)[C@@H]1Cc1cccc(-c2cccc(F)c2)c1F	9.00 to 10.20

Let me know recorded pEC50 for `C[C@@](O)(CF)C(=O)N1CC2(CC2)[C@H](NS(=O)(=O)CF)[C@@H]1Cc1cccc(-c2cc(F)cc(F)c2)c1F` , thanks.
8.00 to 9.00

Let me know recorded pEC50 for `CC(C)(F)CNC(=O)N1CC2(CC2)[C@H](NS(=O)(=O)CF)[C@@H]1Cc1cc(F)cc(-c2ccccc2)c1F` , thanks.
9.00 to 10.20
